Biological target: T1, Anti-CD28 Fab (SEQ ID NOs: 202, 203)
T1 construct: biotinylated and captured on neutravidin coated plates in the phage ELISA
T1 sequence (VH, as listed by the source, chain 1 of 2): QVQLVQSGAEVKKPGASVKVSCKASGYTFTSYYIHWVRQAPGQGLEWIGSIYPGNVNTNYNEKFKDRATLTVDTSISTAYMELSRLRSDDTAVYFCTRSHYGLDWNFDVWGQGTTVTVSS
T1 sequence (VL, as listed by the source, chain 2 of 2): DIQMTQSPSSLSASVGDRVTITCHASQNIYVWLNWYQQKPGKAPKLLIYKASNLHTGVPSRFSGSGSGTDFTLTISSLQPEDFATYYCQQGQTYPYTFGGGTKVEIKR
Assay: phage ELISA on captured biotinylated Fab;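 note: wells preblocked with or without CD28 antigen, then clonal phage supernatant added briefly, washed, and bound phage read out by ELISA using HRP-linked anti-M13 antibody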
measure: Anti-CD28 Fab signal

{"binder": "YCAGHSPEFMEKCL [Phage-297]", "measure": "Anti-CD28 Fab signal", "observedResult": 1.91}
{"binder": "YCDGHMGVYYWKCL [Phage-255]", "measure": "Anti-CD28 Fab signal", "observedResult": 2.01}
{"binder": "YCEGHLPIYMDKCL [Phage-228]", "measure": "Anti-CD28 Fab signal", "observedResult": 2.06}
{"binder": "YCAGHLPQYMEKCM [Phage-206]", "measure": "Anti-CD28 Fab signal", "observedResult": 2.09}
{"binder": "YCDGHLPEYQMKCL [Phage-236]", "measure": "Anti-CD28 Fab signal", "observedResult": 2.05}
{"binder": "YCDGHSAEYLAKCL [Phage-293]", "measure": "Anti-CD28 Fab signal", "observedResult": 1.93}
{"binder": "YCDGHASEYMWKCL [Phage-286]", "measure": "Anti-CD28 Fab signal", "observedResult": 1.94}
{"binder": "YCDGHMPQYMSKCL [Phage-266]", "measure": "Anti-CD28 Fab signal", "observedResult": 1.98}
